TEST_DESCRIPTION: Plasma concentration in Sprague-Dawley rat at 2 mg/kg, po after 0.5 hrs
Type: ADME, organism-based
Set-up: dose 2 mg/kg, route oral
ATTRIBUTE_MEASURED: concentration at 0.5 h (µM)
Reply with just the number (in µM).

// fetch concentration at 0.5 h given entry COc1ccc(-c2cc3onc(-c4ccncc4)c3c(=O)n2C)cc1
3.9

----------
# solubility annotations
TEST_DESCRIPTION: Solubility at pH 7.4
Assay type: physicochemical
TEST_PARAMETERS: buffer
Reply with just the number (in µg/mL).

// fetch solubility given entry Cn1c(-c2ccccc2)cc2onc(-c3ccccc3)c2c1=O
0.17

With those in mind, consider the next molecule.
// fetch solubility given entry COc1ccc(-c2cc3onc(-c4ccncc4)c3c(=O)n2C)cc1
3.3

----------
# pIC50 annotations
ASSAY_SYSTEM: UniProtKB P35400
Sequence (P35400 whole entry): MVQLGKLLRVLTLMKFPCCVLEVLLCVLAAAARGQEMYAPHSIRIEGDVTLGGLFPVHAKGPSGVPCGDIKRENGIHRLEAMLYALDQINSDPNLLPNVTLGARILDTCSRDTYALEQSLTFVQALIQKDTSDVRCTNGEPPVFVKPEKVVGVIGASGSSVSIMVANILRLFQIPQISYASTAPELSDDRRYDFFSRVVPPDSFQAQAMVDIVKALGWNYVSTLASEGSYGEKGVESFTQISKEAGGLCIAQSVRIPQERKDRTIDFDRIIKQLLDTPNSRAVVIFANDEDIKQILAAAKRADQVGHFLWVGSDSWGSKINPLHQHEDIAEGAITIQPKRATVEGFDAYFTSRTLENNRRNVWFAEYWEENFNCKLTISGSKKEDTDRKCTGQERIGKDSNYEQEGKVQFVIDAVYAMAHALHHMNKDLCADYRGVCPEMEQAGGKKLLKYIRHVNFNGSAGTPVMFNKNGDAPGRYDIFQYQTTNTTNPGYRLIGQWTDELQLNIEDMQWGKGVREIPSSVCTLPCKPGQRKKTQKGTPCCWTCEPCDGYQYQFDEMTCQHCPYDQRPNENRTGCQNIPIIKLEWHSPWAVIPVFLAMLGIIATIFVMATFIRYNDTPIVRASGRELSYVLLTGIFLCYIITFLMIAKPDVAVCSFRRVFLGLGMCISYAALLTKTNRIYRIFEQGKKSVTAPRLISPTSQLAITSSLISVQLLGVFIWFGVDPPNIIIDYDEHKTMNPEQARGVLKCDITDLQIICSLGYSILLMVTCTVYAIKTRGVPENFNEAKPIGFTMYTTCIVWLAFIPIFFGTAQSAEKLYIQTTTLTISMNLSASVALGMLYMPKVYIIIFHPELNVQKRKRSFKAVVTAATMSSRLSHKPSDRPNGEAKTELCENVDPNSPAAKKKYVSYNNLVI
TEST_DESCRIPTION: Antagonist activity at rat mGluR7 expressed in CHO cells assessed as inhibition of LAP-induced intracellular calcium mobilization by FLIPR
Bear in mind: pIC50 is minus log10 of a mol/L concentration; give just that figure.

These solved cases illustrate the format of a correct answer.
// fetch pIC50 given entry CN(C)c1ccc(-c2cc3onc(-c4ccccc4)c3c(=O)n2C)cc1
6.85

// fetch pIC50 given entry Cn1c(-c2ccc(F)cc2)cc2onc(-c3ccccc3)c2c1=O
7.14

With those in mind, consider the next molecule.
// fetch pIC50 given entry Cn1c(-c2ccccc2)cc2onc(-c3ccncc3)c2c1=O
7.00
